The reported measurements were obtained from ChEMBL document CHEMBL5649170.

targetUnderTest: Tyrosine-protein kinase receptor UFO (Homo sapiens, UniProt P30530)
Sequence (P30530 whole entry): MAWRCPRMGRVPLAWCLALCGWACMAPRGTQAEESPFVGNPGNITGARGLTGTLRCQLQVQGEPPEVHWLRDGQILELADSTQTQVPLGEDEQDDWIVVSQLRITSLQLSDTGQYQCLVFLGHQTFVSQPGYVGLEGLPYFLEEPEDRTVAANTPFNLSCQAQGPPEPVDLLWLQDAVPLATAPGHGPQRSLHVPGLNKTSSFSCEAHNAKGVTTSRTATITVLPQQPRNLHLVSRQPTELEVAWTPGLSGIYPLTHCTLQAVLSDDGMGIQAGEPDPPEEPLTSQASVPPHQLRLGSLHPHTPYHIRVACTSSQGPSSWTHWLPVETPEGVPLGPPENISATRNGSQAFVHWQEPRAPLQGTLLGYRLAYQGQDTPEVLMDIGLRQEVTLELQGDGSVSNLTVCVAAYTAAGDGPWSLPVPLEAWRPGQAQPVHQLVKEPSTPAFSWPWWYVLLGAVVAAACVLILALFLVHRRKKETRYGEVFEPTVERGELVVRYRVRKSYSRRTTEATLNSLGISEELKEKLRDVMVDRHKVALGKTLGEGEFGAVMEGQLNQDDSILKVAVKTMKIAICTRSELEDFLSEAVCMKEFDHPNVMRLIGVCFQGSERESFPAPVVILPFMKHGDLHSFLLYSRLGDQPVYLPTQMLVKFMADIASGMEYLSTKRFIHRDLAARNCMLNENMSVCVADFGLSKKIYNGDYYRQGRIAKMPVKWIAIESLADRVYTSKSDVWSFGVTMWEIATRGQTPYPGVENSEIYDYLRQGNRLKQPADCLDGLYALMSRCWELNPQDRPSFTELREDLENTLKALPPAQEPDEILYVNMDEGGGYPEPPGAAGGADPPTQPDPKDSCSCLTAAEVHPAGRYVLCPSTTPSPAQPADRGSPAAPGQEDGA
reportedEndpoint: IC50

Which IC50 reading was recorded for the compound COc1ncc(F)cc1CNc1ccc(Cc2c[nH]c3ncc(C)cc23)c(F)n1 [PLX-5622] ?
> 1 µM

* * *

targetUnderTest: UniProt:P09769
Sequence (P09769 whole entry): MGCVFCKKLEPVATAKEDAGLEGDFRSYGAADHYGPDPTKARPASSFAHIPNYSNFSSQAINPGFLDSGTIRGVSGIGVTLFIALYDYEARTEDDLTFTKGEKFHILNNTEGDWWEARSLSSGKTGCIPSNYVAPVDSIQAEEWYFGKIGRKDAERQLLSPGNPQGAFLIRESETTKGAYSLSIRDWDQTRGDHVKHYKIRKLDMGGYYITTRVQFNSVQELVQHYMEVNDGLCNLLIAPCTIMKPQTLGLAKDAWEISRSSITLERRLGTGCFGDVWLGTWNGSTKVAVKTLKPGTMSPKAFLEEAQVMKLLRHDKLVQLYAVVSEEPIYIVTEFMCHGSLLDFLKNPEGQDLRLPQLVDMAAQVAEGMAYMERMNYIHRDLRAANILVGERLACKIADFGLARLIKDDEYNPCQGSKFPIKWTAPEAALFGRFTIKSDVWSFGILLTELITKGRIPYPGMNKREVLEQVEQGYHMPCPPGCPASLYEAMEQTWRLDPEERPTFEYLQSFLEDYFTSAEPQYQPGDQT
reportedEndpoint: IC50

Which IC50 reading was recorded for the molecule COc1ncc(F)cc1CNc1ccc(Cc2c[nH]c3ncc(C)cc23)c(F)n1 [PLX-5622] ?
> 1000 nM

* * *

targetUnderTest: Fibroblast growth factor receptor 2 (Homo sapiens, UniProt P21802)
Sequence (P21802 whole entry): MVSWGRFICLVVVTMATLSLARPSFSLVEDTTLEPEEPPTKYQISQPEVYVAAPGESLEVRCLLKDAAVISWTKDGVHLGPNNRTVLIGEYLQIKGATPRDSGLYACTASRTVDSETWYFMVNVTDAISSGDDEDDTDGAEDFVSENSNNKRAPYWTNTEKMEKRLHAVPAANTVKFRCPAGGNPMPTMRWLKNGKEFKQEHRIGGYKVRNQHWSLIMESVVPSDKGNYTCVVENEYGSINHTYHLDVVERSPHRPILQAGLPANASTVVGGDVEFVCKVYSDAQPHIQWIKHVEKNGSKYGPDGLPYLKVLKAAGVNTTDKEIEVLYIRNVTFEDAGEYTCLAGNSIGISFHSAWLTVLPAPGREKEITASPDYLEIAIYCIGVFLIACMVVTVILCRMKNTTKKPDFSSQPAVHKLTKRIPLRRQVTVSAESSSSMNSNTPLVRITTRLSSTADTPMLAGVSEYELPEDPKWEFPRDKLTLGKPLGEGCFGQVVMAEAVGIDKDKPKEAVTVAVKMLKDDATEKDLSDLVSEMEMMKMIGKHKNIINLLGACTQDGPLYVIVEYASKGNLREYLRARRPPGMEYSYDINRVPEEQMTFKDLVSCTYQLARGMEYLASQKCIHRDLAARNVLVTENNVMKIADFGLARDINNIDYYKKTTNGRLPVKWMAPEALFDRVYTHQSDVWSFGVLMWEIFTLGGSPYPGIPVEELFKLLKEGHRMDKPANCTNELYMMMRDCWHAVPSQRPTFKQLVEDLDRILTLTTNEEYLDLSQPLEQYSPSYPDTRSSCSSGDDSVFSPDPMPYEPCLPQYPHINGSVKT
reportedEndpoint: IC50

Recorded IC50 for COc1ncc(F)cc1CNc1ccc(Cc2c[nH]c3ncc(C)cc23)c(F)n1 [PLX-5622] with Fibroblast growth factor receptor 2 (Homo sapiens, UniProt P21802), please?
> 1000 nM
